System: RARg:RXRa (NR concentration 270 nM, RXRa partner concentration 90 nM)
test.description: PBM binding z-score (relative to random genomic background probes); higher = stronger binding; sequences stand for … in GC…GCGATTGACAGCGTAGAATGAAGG
Label no if PBM binding z-score falls below 5; label yes in every other case.

Would you please look over these solved cases?
input.sequence	system.name	label.class
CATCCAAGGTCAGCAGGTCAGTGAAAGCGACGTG	RARg:RXRa (NR concentration 270 nM, RXRa partner concentration 90 nM)	yes
CCTACTGCGCCACGAAAGGTCATTGATTCAGTGA	RARg:RXRa (NR concentration 270 nM, RXRa partner concentration 90 nM)	no
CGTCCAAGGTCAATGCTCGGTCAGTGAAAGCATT	RARg:RXRa (NR concentration 270 nM, RXRa partner concentration 90 nM)	yes
ACTAGCAGGCCAAGGGTCACTAAAGATTAGTCCG	RARg:RXRa (NR concentration 270 nM, RXRa partner concentration 90 nM)	no
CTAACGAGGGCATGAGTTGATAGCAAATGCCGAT	RARg:RXRa (NR concentration 270 nM, RXRa partner concentration 90 nM)	no

Attention now shifts to the item below.
Could you please find out whether TAGCCTAGGTCAGGGGCCAGTATACCACGCGAAC has PBM binding z-score that meets 5 or exceeds it? no

---

System: RXRa homodimer (NR concentration 180 nM)
test.description: PBM binding z-score (relative to random genomic background probes); higher = stronger binding; sequences stand for … in GC…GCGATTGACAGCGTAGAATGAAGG
readout: PBM binding z-score
When you answer, write just the number.

Here is how some sequences turned out for PBM binding z-score.
input.sequence	PBM binding z-score
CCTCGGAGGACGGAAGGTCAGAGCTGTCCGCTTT	1.69
CAAACTAGGTCAAAGATCAAAGTCGAGCCAACCA	5.28
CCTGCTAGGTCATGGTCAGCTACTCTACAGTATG	2.51
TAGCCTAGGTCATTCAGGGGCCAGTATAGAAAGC	2.84
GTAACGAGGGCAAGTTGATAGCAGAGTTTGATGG	0.851

Given the sequence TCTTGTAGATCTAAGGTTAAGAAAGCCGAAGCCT , what is its reported PBM binding z-score? 1.21

---

Tested on: RARa:RXR (NR concentration 270 nM, RXRa partner concentration 90 nM)
test.description: PBM binding z-score (relative to random genomic background probes); higher = stronger binding; sequences stand for … in GC…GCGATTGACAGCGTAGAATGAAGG
Here the recorded PBM binding z-score is given for each entry.

Some solved entries appear below for comparison.
input.sequence	value.observed
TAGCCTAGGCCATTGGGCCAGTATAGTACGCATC	-0.936
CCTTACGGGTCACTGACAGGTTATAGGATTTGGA	4.38
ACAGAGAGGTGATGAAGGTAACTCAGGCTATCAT	0.393
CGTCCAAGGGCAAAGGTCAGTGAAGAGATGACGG	6.49
CGTCCAAGGTCAACGGTCAGTGAAGAGATGACGG	4.66

So what does the record say about PBM binding z-score for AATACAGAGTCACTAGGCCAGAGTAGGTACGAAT ? -0.415

May I ask what PBM binding z-score has been recorded for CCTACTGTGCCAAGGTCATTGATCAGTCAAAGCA ? 3.76

Could you share which PBM binding z-score value was measured for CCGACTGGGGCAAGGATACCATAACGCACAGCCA ? -0.387

State the recorded PBM binding z-score for this entry: CCTGGGAGGACAGAAGGTCAGAGCTGTCCGCTTT 2.16

Endpoint output: PBM binding z-score of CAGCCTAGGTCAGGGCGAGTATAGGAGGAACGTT . Value? 1.11

Can you look up the measured PBM binding z-score of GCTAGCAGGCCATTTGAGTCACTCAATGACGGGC for me? -0.381

Returns the measured PBM binding z-score for the input sequence. Input: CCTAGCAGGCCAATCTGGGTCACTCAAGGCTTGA 1.17

Data provenance: the supplement of paper PMC6555819
